Recorded values, source patent US5840721A.

System: CEM/VLB1000 cell line
Experiment: [3H]VLB accumulation in CEM/VLB1000 cells
Format: cell-based
Settings: Homo sapiens, midpoint of minimum and maximum increase in accumulation of 3H-vinblastine (275 nM), 3 hours at 37° C
REPORTED ENDPOINT: EC50 (µM)

The examples below pair each entry with its known result.
Q: Return reported EC50; argument: CCOC/C=C/c1ccc(-c2nc(-c3ccc(N(C)C)cc3)c(-c3ccc(N(C)C)cc3)[nH]2)cc1
A: 1.2

Q: Given CN(C)C(=O)/C=C/c1ccc(-c2nc(-c3ccc(N(C)C)cc3)c(-c3ccc(N(C)C)cc3)[nH]2)cc1 , state its recorded EC50.
A: 1.7

Q: // query EC50 value for entry CN(C)c1ccc(-c2nc(-c3ccc(/C=C/CO)cc3)[nH]c2-c2ccc(N(C)C)cc2)cc1
A: 3.9

(P) COC/C=C/c1ccc(-c2nc(-c3ccc(N(C)C)cc3)c(-c3ccc(N(C)C)cc3)[nH]2)cc1
(Q) CN(C)c1ccc(-c2nc(-c3ccc(/C=C/COCc4ccccc4)cc3)[nH]c2-c2ccc(N(C)C)cc2)cc1
Q: In the pair P and Q , the larger recorded EC50 belongs to which? Reply with the label of the item you choose.
A: P

====

Tested on: CEM/VLB1000 cell line
Experiment: Cytotoxicity potentiation: enhancement of vinblastine cytotoxicity in MDR cell line (alamar blue)
Format: cell-based, human
Details: Homo sapiens, midpoint of minimum and maximum cytotoxicity induced by 3-5 μg/mL vinblastine and compound, 48 hours incubation, alamar blue 24 hours, read-out: Cytotocicity Potentiation (EC50)
REPORTED ENDPOINT: pEC50
Answer as the number alone; pEC50 is minus log10 of concentration in mol/L.

# count of solved cases: 10
Q: Which pEC50 reading was recorded for the compound CCOC/C=C/c1ccc(-c2nc(-c3ccc(N(CC)CC)cc3)c[nH]2)cc1 [Example 108] ?
A: 6.52

Q: Which pEC50 value is on record for CN(C)c1ccc(-c2nc(-c3ccc(N4CCOCC4)cc3)[nH]c2-c2ccc(N(C)C)cc2)cc1 [Example 97] ?
A: 6.72

Q: Using the record for CN(C)C(=O)/C=C/c1ccc(-c2nc(-c3ccc(N(C)C)cc3)c(-c3ccc(N(C)C)cc3)[nH]2)cc1 [Example 111] , report its pEC50.
A: 6.21

Q: pEC50 for CCOC/C=C/c1ccc(-c2nc(-c3ccc(NCC(C)C)cc3)c[nH]2)cc1 [Example 124] ?
A: 6.60

Q: Dear colleague, I am looking for the recorded pEC50 of the following compound: CCOC/C=C/c1ccc(-c2nc(-c3ccc(N(C)C)cc3)c(-c3ccc(N4CCOCC4)cc3)[nH]2)cc1 [Example 93]
A: 6.82

Q: Reported pEC50, compound CNc1ccc(-c2nc(-c3ccc(/C=C/C(=O)OC)cc3)[nH]c2-c2ccc(N3CCOCC3)cc2)cc1 [Example 73] : ____
A: 6.47

Q: // returns reported pEC50 for input CCOC/C=C/c1ccc(-c2nc(-c3ccc(N4CCOCC4)cc3)c(-c3ccc(N4CCOCC4)cc3)[nH]2)cc1 [Example 92]
A: 6.66

Q: Look up pEC50 for this compound: CCOC/C=C/c1ccc(-c2nc(-c3ccc(N(CC)CC)cc3)c(-c3ccc(NC)cc3)[nH]2)cc1 [Example 87]
A: 7.22

Q: I have this compound here, COC(=O)/C=C/c1ccc(-c2nc(-c3ccc(N4CCOCC4)cc3)c(-c3ccc(N4CCOCC4)cc3)[nH]2)cc1 [Example 71] , and I need its recorded pEC50.
A: 6.43

Q: # lookup: pEC50 of CCCN(CCC)c1ccc(-c2c[nH]c(-c3ccc(/C=C/COCC)cc3)n2)cc1 [Example 122]
A: 6.55

Let us examine a further case.
Q: Can you look up the measured pEC50 of CNc1ccc(-c2[nH]c(-c3ccc(/C=C/c4nc5ccccc5s4)cc3)nc2-c2ccc(N(C)C)cc2)cc1 [Example 63] for me?
A: 6.49

====

Tested on: CEM/VLB1000 cell line
Assay: Cytotoxicity potentiation: enhancement of vinblastine cytotoxicity in MDR cell line (alamar blue)
Assay type: cell-based, human
Conditions: Homo sapiens, midpoint of minimum and maximum cytotoxicity induced by 3-5 μg/mL vinblastine and compound, 48 hours incubation, alamar blue 24 hours, read-out: Cytotocicity Potentiation (EC50)
REPORTED ENDPOINT: EC50 (µM)
Write down the numeric answer in µM and omit the unit.

Use these answered entries as a reference point.
Q: Consider the compound shown here: COC/C=C/c1ccc(-c2nc(-c3ccc(N(C)C)cc3)c(-c3ccc(N(C)C)cc3)[nH]2)cc1 What is its recorded EC50?
A: 0.13

Q: Value lookup for EC50; key = CCOC/C=C/c1ccc(-c2nc(-c3ccc(OC(C)C)cc3)c(-c3ccc(OC(C)C)cc3)n2CCCn2ccnc2)cc1
A: 0.49

Q: What does the data say about its EC50? Entry: CCOC/C=C/c1ccc(-c2nc(-c3ccc(NC)cc3)c(-c3ccc(N4CCCC4)cc3)[nH]2)cc1
A: 0.11

Q: Which measured EC50 value corresponds to CCOC/C=C/c1ccc(-c2nc(-c3ccc(NC(C)C)cc3)c(-c3ccc(NC(C)C)cc3)[nH]2)cc1 ?
A: 0.067

Q: Bench note: what EC50 did CNc1ccc(-c2nc(-c3ccc(/C=C/C(=O)OC)cc3)[nH]c2-c2ccc(N3CCCCC3)cc2)cc1 show?
A: 0.39

Next:
Q: I'd like to know its EC50. The compound in question is CCNc1ccc(-c2[nH]c(-c3ccc(/C=C/COCC)cc3)nc2-c2ccc(NC(C)C)cc2)cc1
A: 0.053

Q: What EC50 value was documented for this compound, CCOC/C=C/c1ccc(-c2nc3cc(OC)ccc3[nH]2)cc1 ?
A: 1

====

Measured pEC50, listed per entry.
Tested on: CEM/VLB1000 cell line
Test: Cytotoxicity potentiation: enhancement of vinblastine cytotoxicity in MDR cell line (alamar blue)
Assay type: cell-based, human
Conditions: Homo sapiens, midpoint of minimum and maximum cytotoxicity induced by 3-5 μg/mL vinblastine and compound, 48 hours incubation, alamar blue 24 hours, read-out: Cytotocicity Potentiation (EC50)
// pEC50: -log10(molar conc.)

Consider the worked cases shown below.
Q: pEC50 for CCOC/C=C/c1ccc(-c2nc(-c3ccc(NC(C)C)cc3)c(-c3ccc(NC)cc3)[nH]2)cc1 ?
A: 7.30

Q: Given CN(C)c1ccc(-c2nc(-c3ccc(/C=C/S(C)(=O)=O)cc3)[nH]c2-c2ccc(N(C)C)cc2)cc1 , state its recorded pEC50.
A: 6.14

Q: # pEC50 lookup, item COC(=O)/C=C/c1ccc(-c2nc(-c3ccc(N(C)C)cc3)c(-c3ccc(N4CCOCC4)cc3)[nH]2)cc1
A: 6.49

Q: May I ask what pEC50 has been recorded for COC/C=C/c1ccc(-c2nc(-c3ccc(N4CCCC4)cc3)c(-c3ccc(N4CCCC4)cc3)[nH]2)cc1 ?
A: 6.59

Q: Need pEC50, item CC(=O)/C=C/c1ccc(-c2nc(-c3ccc(N(C)C)cc3)c(-c3ccc(N(C)C)cc3)[nH]2)cc1
A: 6.64

Q: Form field: reported pEC50 of CCOC/C=C/c1ccc(-c2nc(-c3ccc(N4CCOCC4)cc3)c[nH]2)cc1
A: 6.43

Q: Which pEC50 is listed for CN(C)c1ccc(-c2nc(-c3ccc(/C=C/c4nc5ccccc5s4)cc3)[nH]c2-c2ccc(N(C)C)cc2)cc1 ?
A: 5.99

Q: What does the record list as pEC50 for CN(C)C/C=C/c1ccc(-c2nc(-c3ccc(N(C)C)cc3)c(-c3ccc(N(C)C)cc3)[nH]2)cc1 ?
A: 5.89

Continuing:
Q: Query (compound): CN(C)c1ccc(-c2nc(-c3ccc(/C=C/c4nc5ccccc5o4)cc3)[nH]c2-c2ccc(N(C)C)cc2)cc1 ; field requested: pEC50
A: 6.26

Q: Which pEC50 reading was recorded for the compound CN(C)c1ccc(-c2nc(-c3ccc(/C=C/CO)cc3)n(C)c2-c2ccc(N(C)C)cc2)cc1 ?
A: 6.20

Q: For the compound shown here, CCOC/C=C/c1ccc(-c2nc(-c3ccc(NC)cc3)c(-c3ccc(N4CCOCC4)cc3)[nH]2)cc1 , give the reported pEC50.
A: 6.60

Q: I'd like to know its pEC50. The compound in question is CCOC/C=C/c1ccc(-c2nc(-c3ccc(N(C)C)cc3)c(-c3ccc(N(C)C)cc3)[nH]2)cc1
A: 7.01

====

System: CEM/VLB1000 cell line
Test: Cytotoxicity potentiation: enhancement of vinblastine cytotoxicity in MDR cell line (alamar blue)
Format: cell-based, human
Conditions: Homo sapiens, midpoint of minimum and maximum cytotoxicity induced by 3-5 μg/mL vinblastine and compound, 48 hours incubation, alamar blue 24 hours, read-out: Cytotocicity Potentiation (EC50)
Collected pEC50 values appear next to each entry.
pEC50 here is simply -log10 of the concentration when that concentration is written in mol/L.

In the examples that follow, each entry is paired with its recorded pEC50.
Q: Please report the recorded pEC50 for CN(C)c1ccc(-c2nc(-c3ccc(/C=C/COC(=O)C(C)(C)C)cc3)[nH]c2-c2ccc(N(C)C)cc2)cc1 [Example 115] .
A: 6.32

Q: Which pEC50 is reported for this molecule? CCOC/C=C/c1ccc(-c2nc(-c3ccc(NC(C)C)cc3)c[nH]2)cc1 [Example 123]
A: 6.47

Q: Given the entry CCOC/C=C/c1ccc(-c2nc(-c3ccc(OC)cc3)c(-c3ccc(OC)cc3)[nH]2)cc1 [Example 102] , report its measured pEC50.
A: 6.46

Continuing:
Q: Consider the molecule shown here: C=CCN(CC=C)c1ccc(-c2nc(-c3ccc(/C=C/C(=O)OC)cc3)[nH]c2-c2ccc(F)cc2)cc1 [Example 66] What is its recorded pEC50?
A: 6.07

Q: Form field: reported pEC50 of CCOC/C=C/c1ccc(-c2nc(-c3ccc(OC)cc3)c(-c3ccc(OC)cc3)n2CCCn2ccnc2)cc1 [Example 105]
A: 6.19

Q: Look at this molecule and give its reported pEC50. CCOC/C=C/c1ccc(-c2nc(-c3ccc(N(C)C)cc3)c(-c3ccc(NC)cc3)[nH]2)cc1 [Example 76]
A: 6.96

Q: # pEC50 lookup, item CCN(CC)Cc1ccc(-c2[nH]c(-c3ccc(/C=C/C(=O)OC)cc3)nc2-c2ccc(C)cc2)cc1 [Example 99]
A: 6.54

Q: Consider the molecule shown here: COC(=O)[C@@H]1C[C@H]1c1ccc(-c2nc(-c3ccc(N(C)C)cc3)c(-c3ccc(N(C)C)cc3)[nH]2)cc1 (relative stereo) [Example 101] What is its recorded pEC50?
A: 6.70
